So I've got a bunch of molecules here, and I need their pIC50 values.
System: Platelet
Experiment: Inhibition of adenosine diphosphate-induced pig platelet aggregation measured for 5 mins
Assay type: functional, cell-based
Conditions: Sus scrofa
Square brackets hold non-standard residues; d marks the D form. Peptide text beside a SMILES is read from it. Tic = O=C(O)[C@@H]1Cc2ccccc2CN1
Units for pIC50: none; it is -log10 of a concentration expressed in mol/L.

What measured pIC50 goes with NCC(=O)N1Cc2ccccc2C[C@H]1C(=O)NCC(=O)O (H-Gly-[Tic]-Gly-OH) ?
8.61

What do we get for N[C@@H](CCC(=O)O)C(=O)N1Cc2ccccc2C[C@H]1C(=O)N[C@@H](CCC(=O)O)C(=O)O (H-Glu-[Tic]-Glu-OH) ?
8.66

What do we get for NCCCC[C@H](NC(=O)[C@@H]1Cc2ccccc2CN1C(=O)[C@@H](N)CCCCN)C(=O)O (H-Lys-[Tic]-Lys-OH) ?
8.43

What do we get for CSCC[C@H](NC(=O)[C@@H]1Cc2ccccc2CN1C(=O)[C@@H](N)CCSC)C(=O)O (H-Met-[Tic]-Met-OH) ?
8.47

What do we get for C[C@@H](O)[C@H](N)C(=O)N1Cc2ccccc2C[C@H]1C(=O)N[C@H](C(=O)O)[C@@H](C)O (H-Thr-[Tic]-Thr-OH) ?
8.54

What do we get for N[C@@H](CO)C(=O)N1Cc2ccccc2C[C@H]1C(=O)N[C@@H](CO)C(=O)O (H-Ser-[Tic]-Ser-OH) ?
8.66

What do we get for CC[C@H](C)[C@H](N)C(=O)N1Cc2ccccc2C[C@H]1C(=O)N[C@H](C(=O)O)[C@@H](C)CC (H-Ile-[Tic]-Ile-OH) ?
8.54

---

System: Platelet
Experiment: Inhibition of adenosine diphosphate-induced pig platelet aggregation measured for 5 mins
Assay type: functional, cell-based
Details: Sus scrofa
Square brackets hold non-standard residues; d marks the D form. Peptide text beside a SMILES is read from it. Tic = O=C(O)[C@@H]1Cc2ccccc2CN1
Entries whose IC50 is below 3 nM take yes; entries at or above 3 nM take no.

Is 3 nM strictly greater than the compound's reported IC50? compound: CC(C)[C@H](N)C(=O)N1Cc2ccccc2C[C@H]1C(=O)N[C@H](C(=O)O)C(C)C (H-Val-[Tic]-Val-OH)
yes

What do we get for N[C@@H](Cc1ccccc1)C(=O)N1Cc2ccccc2C[C@H]1C(=O)N[C@@H](Cc1ccccc1)C(=O)O (H-Phe-[Tic]-Phe-OH) ?
yes

What do we get for N[C@@H](CC(=O)O)C(=O)N1Cc2ccccc2C[C@H]1C(=O)N[C@@H](CC(=O)O)C(=O)O (H-Asp-[Tic]-Asp-OH) ?
no

What do we get for CC(C)C[C@H](NC(=O)[C@@H]1Cc2ccccc2CN1C(=O)[C@@H](N)CC(C)C)C(=O)O (H-Leu-[Tic]-Leu-OH) ?
yes

What do we get for N=C(N)NCCC[C@H](NC(=O)[C@@H]1Cc2ccccc2CN1C(=O)[C@@H](N)CCCNC(=N)N)C(=O)O (H-Arg-[Tic]-Arg-OH) ?
no

What do we get for N[C@@H](Cc1ccc(O)cc1)C(=O)N1Cc2ccccc2C[C@H]1C(=O)N[C@@H](Cc1ccc(O)cc1)C(=O)O (H-Tyr-[Tic]-Tyr-OH) ?
yes

---

So I've got a bunch of molecules here, and I need their IC50 values.
System: Platelet
Experiment: Inhibition of adenosine diphosphate-induced pig platelet aggregation measured for 5 mins
Type: functional, cell-based
Conditions: Sus scrofa
Square brackets hold non-standard residues; d marks the D form. Peptide text beside a SMILES is read from it. Tic = O=C(O)[C@@H]1Cc2ccccc2CN1
Write down the numeric answer in nM and omit the unit.

What measured IC50 goes with C[C@H](N)C(=O)N1Cc2ccccc2C[C@H]1C(=O)N[C@@H](C)C(=O)O ?
2.36

What do we get for N[C@@H](Cc1c[nH]cn1)C(=O)N1Cc2ccccc2C[C@H]1C(=O)N[C@@H](Cc1cnc[nH]1)C(=O)O (H-His-[Tic]-His-OH) ?
2.84

What do we get for N[C@@H](CS)C(=O)N1Cc2ccccc2C[C@H]1C(=O)N[C@@H](CS)C(=O)O (H-Cys-[Tic]-Cys-OH) ?
3.26

What do we get for NC(=O)CC[C@H](NC(=O)[C@@H]1Cc2ccccc2CN1C(=O)[C@@H](N)CCC(N)=O)C(=O)O (H-Gln-[Tic]-Gln-OH) ?
2.55
